Tested on: Caco-2
Test: cell viability relative to DMSO; higher = less toxic
Settings: 72 h; 100 nM
measure-name: cell viability (%)

[
  {
    "molecule": "CC(C)C[C@@H](C(=O)N[C@H](C(=O)OC1CCCC1)c1ccccc1)[C@H](O)C(=O)NO",
    "system-name": "Caco-2",
    "measure-name": "cell viability",
    "measured-value": 93.6
  },
  {
    "molecule": "CN1C(=O)CC(c2ccccc2)C1=O (stereo not drawn) [phensuximide]",
    "system-name": "Caco-2",
    "measure-name": "cell viability",
    "measured-value": 97.2
  },
  {
    "molecule": "Cc1cc(C(=O)Nc2cccc(C(=O)Nc3cccc(C(F)(F)F)c3)c2)on1",
    "system-name": "Caco-2",
    "measure-name": "cell viability",
    "measured-value": 89.5
  },
  {
    "molecule": "CCCCCCCCCCCCCCCCCCCCCCO",
    "system-name": "Caco-2",
    "measure-name": "cell viability",
    "measured-value": 99.5
  },
  {
    "molecule": "CCCCCCCCCCCCCCC[C@@H](O)[C@@H](N)CO",
    "system-name": "Caco-2",
    "measure-name": "cell viability",
    "measured-value": 91
  },
  {
    "molecule": "O=C(O)C(=O)Nc1cccc(-c2nnn[nH]2)c1",
    "system-name": "Caco-2",
    "measure-name": "cell viability",
    "measured-value": 88.4
  },
  {
    "molecule": "OCc1ccc(CO)o1",
    "system-name": "Caco-2",
    "measure-name": "cell viability",
    "measured-value": 84.4
  },
  {
    "molecule": "COc1ccc(-c2nc(C(=O)N3CCN(C)CC3)sc2-c2ccc(OC)cc2)cc1",
    "system-name": "Caco-2",
    "measure-name": "cell viability",
    "measured-value": 108
  },
  {
    "molecule": "CCc1nc2ccc(Cl)cn2c1C(=O)NCc1ccc(N2CCC(c3ccc(OC(F)(F)F)cc3)CC2)cc1",
    "system-name": "Caco-2",
    "measure-name": "cell viability",
    "measured-value": 97.1
  },
  {
    "molecule": "CNC[C@@H]1CC[C@@H](N)[C@@H](O[C@H]2[C@H](O)[C@@H](O[C@H]3OC[C@](C)(O)[C@H](NC)[C@H]3O)[C@H](N)C[C@@H]2N)O1",
    "system-name": "Caco-2",
    "measure-name": "cell viability",
    "measured-value": 104
  },
  {
    "molecule": "CC[C@]1(O)C[C@@H]2CN(CCc3c([nH]c4ccccc34)[C@@](C(=O)OC)(c3cc4c(cc3OC)N(C)[C@H]3[C@@](O)(C(=O)OC)[C@H](OC(C)=O)[C@]5(CC)C=CCN6CC[C@]43[C@@H]65)C2)C1 [Vinblastine (sulfate)]",
    "system-name": "Caco-2",
    "measure-name": "cell viability",
    "measured-value": 44.4
  },
  {
    "molecule": "O=C1C2CCN(CC2)C1(CO)CO",
    "system-name": "Caco-2",
    "measure-name": "cell viability",
    "measured-value": 102
  },
  {
    "molecule": "CCCCCNCC(N)=O [milacemide]",
    "system-name": "Caco-2",
    "measure-name": "cell viability",
    "measured-value": 91.4
  },
  {
    "molecule": "N#Cc1ccc(NCCNCC(=O)N2CCC[C@H]2C#N)nc1",
    "system-name": "Caco-2",
    "measure-name": "cell viability",
    "measured-value": 97.1
  },
  {
    "molecule": "NCCCCCCCCCCNS(=O)(=O)c1cccc2c(Cl)cccc12",
    "system-name": "Caco-2",
    "measure-name": "cell viability",
    "measured-value": 107
  },
  {
    "molecule": "CN1CCN(c2ccc3nc(-c4c(N)c5c(F)cccc5[nH]c4=O)[nH]c3c2)CC1",
    "system-name": "Caco-2",
    "measure-name": "cell viability",
    "measured-value": 87.5
  },
  {
    "molecule": "CO/N=C(\\C(=O)N[C@@H]1C(=O)N2C(C(=O)O)=C(COC(N)=O)CS[C@H]12)c1ccco1 [CEFUROXIME SODIUM]",
    "system-name": "Caco-2",
    "measure-name": "cell viability",
    "measured-value": 98.6
  },
  {
    "molecule": "S=C(NC1CCCCC1)N1CCC(c2cnc[nH]2)CC1 [thioperamide]",
    "system-name": "Caco-2",
    "measure-name": "cell viability",
    "measured-value": 92.7
  },
  {
    "molecule": "O=C(O)c1cc(O)c2c(c1)[C@H]([C@H]1c3cc(C(=O)O)cc(O)c3C(=O)c3c(O[C@@H]4O[C@H](CO)[C@@H](O)[C@H](O)[C@H]4O)cccc31)c1cccc(O[C@@H]3O[C@H](CO)[C@@H](O)[C@H](O)[C@H]3O)c1C2=O [sennoside-A]",
    "system-name": "Caco-2",
    "measure-name": "cell viability",
    "measured-value": 88
  },
  {
    "molecule": "O=C(Nc1ncc(SCCN2CCCC2)s1)[C@]1(c2ccc(S(=O)(=O)C3CC3)cc2)C[C@H]1C1CCCCC1",
    "system-name": "Caco-2",
    "measure-name": "cell viability",
    "measured-value": 98
  },
  {
    "molecule": "CCCSc1nc(N[C@@H]2C[C@H]2c2ccc(F)c(F)c2)c2nnn([C@@H]3C[C@H](OCCO)[C@@H](O)[C@H]3O)c2n1",
    "system-name": "Caco-2",
    "measure-name": "cell viability",
    "measured-value": 98
  },
  {
    "molecule": "CC[C@]1(O)C[C@H]2CN(CCc3c([nH]c4ccccc34)[C@@](C(=O)OC)(c3cc4c(cc3OC)N(C=O)[C@H]3[C@@](O)(C(=O)OC)[C@H](OC(C)=O)[C@]5(CC)C=CCN6CC[C@]43[C@@H]65)C2)C1 [Vincristine (sulfate)]",
    "system-name": "Caco-2",
    "measure-name": "cell viability",
    "measured-value": 42.5
  },
  {
    "molecule": "CC(C)NC[C@@H](O)COc1ccc(CC(N)=O)cc1 (racemic) [atenolol-(+/-)]",
    "system-name": "Caco-2",
    "measure-name": "cell viability",
    "measured-value": 105
  },
  {
    "molecule": "C[N+](C)(C)CC#CCN1CCCC1=O",
    "system-name": "Caco-2",
    "measure-name": "cell viability",
    "measured-value": 93.7
  },
  {
    "molecule": "CC(C)c1ccccc1Cc1cc(C(=O)Nc2ccc(S(=O)(=O)c3ccccc3C(C)(C)C)cc2)c(O)c(O)c1O",
    "system-name": "Caco-2",
    "measure-name": "cell viability",
    "measured-value": 93.5
  },
  {
    "molecule": "CCNC(=O)[C@H]1O[C@@H](n2cnc3c(N)nc(NCCc4ccc(CCC(=O)O)cc4)nc32)[C@H](O)[C@@H]1O",
    "system-name": "Caco-2",
    "measure-name": "cell viability",
    "measured-value": 92.1
  },
  {
    "molecule": "C=CCc1cc(OC)c(O)c(C(=O)NCCO)c1 [alibendol]",
    "system-name": "Caco-2",
    "measure-name": "cell viability",
    "measured-value": 90.5
  },
  {
    "molecule": "CC(C)c1cc(CNc2nc(Nc3cc(C4CC4)[nH]n3)cc(N3CCN(C)CC3)n2)on1",
    "system-name": "Caco-2",
    "measure-name": "cell viability",
    "measured-value": 93
  },
  {
    "molecule": "CSc1nc(NC2CCCC2)c([N+](=O)[O-])c(NC2CCCC2)n1",
    "system-name": "Caco-2",
    "measure-name": "cell viability",
    "measured-value": 102
  },
  {
    "molecule": "CCOc1ccc(-c2ccc(Cn3c(CC(C)(C)C(=O)O)c(SC(C)(C)C)c4cc(OCc5ccc(C)cn5)ccc43)cc2)cn1",
    "system-name": "Caco-2",
    "measure-name": "cell viability",
    "measured-value": 105
  },
  {
    "molecule": "CNC(=O)c1ccc2c(c1)S(=O)(=O)c1ccccc1C2=O [BW-616U]",
    "system-name": "Caco-2",
    "measure-name": "cell viability",
    "measured-value": 111
  },
  {
    "molecule": "C=C1/C(=C\\C=C2/CCC[C@]3(C)[C@@H]([C@H](C)CCCC(C)C)CC[C@@H]23)C[C@@H](O)C[C@@H]1O",
    "system-name": "Caco-2",
    "measure-name": "cell viability",
    "measured-value": 92.5
  },
  {
    "molecule": "Cc1ccc(/C=C2\\CNC/C(=C\\c3ccc(C)cc3)C2=O)cc1",
    "system-name": "Caco-2",
    "measure-name": "cell viability",
    "measured-value": 94
  }
]
